Experiment: AUC in rat at 10 mg/kg, po
Format: ADME, organism-based
Design: dose 10 mg/kg, route oral
Settings: plasma
Rule: AUC under 0.2 µM·h gives not fulfilled, otherwise fulfilled.

>>> label_class("Cc1ccc2c(c1)c(-c1ccc[nH]c1=O)c(C(=O)NS(C)(=O)=O)n2Cc1cc([N+](=O)[O-])ccc1F")
"not fulfilled"
>>> label_class("Cc1cc2c(-c3ccc[nH]c3=O)c(C(=O)NS(=O)(=O)C3CC3)n(Cc3cc([N+](=O)[O-])ccc3F)c2cc1F")
"fulfilled"
>>> label_class("O=C(NS(=O)(=O)C1CC1)c1c(-c2ccc[nH]c2=O)c2cc(Cl)ccc2n1Cc1cc([N+](=O)[O-])ccc1F")
"fulfilled"
>>> label_class("Cc1ccc2c(c1)c(-c1ccc[nH]c1=O)c(C(=O)O)n2Cc1cc([N+](=O)[O-])ccc1F")
"not fulfilled"
>>> label_class("CCc1ccc2c(c1)c(-c1ccc[nH]c1=O)c(C(=O)NS(=O)(=O)C1CC1)n2Cc1cc([N+](=O)[O-])ccc1F")
"not fulfilled"

Query: Could you please find out whether Cc1ccc2c(c1)c(-c1ccc[nH]c1=O)c(C(=O)NS(=O)(=O)C1CC1)n2Cc1cc([N+](=O)[O-])ccc1F has AUC that meets 0.2 µM·h or exceeds it?
Reply: not fulfilled

Query: Could you please find out whether CCc1ccc2c(c1)c(-c1ccc[nH]c1=O)c(C(=O)O)n2Cc1cc([N+](=O)[O-])ccc1F has AUC that meets 0.2 µM·h or exceeds it?
Reply: fulfilled
